Tested on: alcohol dehydrogenase (ADH)
assay.comment: Alcohol dehydrogenase (ADH) activity, colorimetric assay
Format: biochemical
measurement.parameters: 5, 50 or 500 μg/mL, relative to ADH activity in the absence of ginsenoside (FIG. 1)
outcome.measure: effect on ADH activity

CC(C)=CCC[C@](C)(O[C@@H]1O[C@H](CO[C@@H]2O[C@H](CO)[C@@H](O)[C@H](O)[C@H]2O)[C@@H](O)[C@H](O)[C@H]1O)[C@H]1CC[C@]2(C)[C@@H]1[C@H](O)C[C@@H]1[C@@]3(C)CC[C@H](O[C@@H]4O[C@H](CO)[C@@H](O)[C@H](O)[C@H]4O[C@@H]4O[C@H](CO)[C@@H](O)[C@H](O)[C@H]4O)C(C)(C)[C@@H]3CC[C@]12C [ginsenoside Rb1]
reduced ADH activity
CC(C)=CCC[C@](C)(O[C@@H]1O[C@H](CO[C@@H]2O[C@@H](CO)[C@H](O)[C@H]2O)[C@@H](O)[C@H](O)[C@H]1O)[C@H]1CC[C@]2(C)[C@@H]1[C@H](O)C[C@@H]1[C@@]3(C)CC[C@H](O[C@@H]4O[C@H](CO)[C@@H](O)[C@H](O)[C@H]4O[C@@H]4O[C@H](CO)[C@@H](O)[C@H](O)[C@H]4O)C(C)(C)[C@@H]3CC[C@]12C [ginsenoside Rc]
reduced ADH activity
